Reference source: patent US20230322761A1

- tgt: BTK (Homo sapiens, UniProt Q06187)
- Construct: endogenous in cells; host or cells: TMD-8 cells
- Sequence (Q06187 whole entry): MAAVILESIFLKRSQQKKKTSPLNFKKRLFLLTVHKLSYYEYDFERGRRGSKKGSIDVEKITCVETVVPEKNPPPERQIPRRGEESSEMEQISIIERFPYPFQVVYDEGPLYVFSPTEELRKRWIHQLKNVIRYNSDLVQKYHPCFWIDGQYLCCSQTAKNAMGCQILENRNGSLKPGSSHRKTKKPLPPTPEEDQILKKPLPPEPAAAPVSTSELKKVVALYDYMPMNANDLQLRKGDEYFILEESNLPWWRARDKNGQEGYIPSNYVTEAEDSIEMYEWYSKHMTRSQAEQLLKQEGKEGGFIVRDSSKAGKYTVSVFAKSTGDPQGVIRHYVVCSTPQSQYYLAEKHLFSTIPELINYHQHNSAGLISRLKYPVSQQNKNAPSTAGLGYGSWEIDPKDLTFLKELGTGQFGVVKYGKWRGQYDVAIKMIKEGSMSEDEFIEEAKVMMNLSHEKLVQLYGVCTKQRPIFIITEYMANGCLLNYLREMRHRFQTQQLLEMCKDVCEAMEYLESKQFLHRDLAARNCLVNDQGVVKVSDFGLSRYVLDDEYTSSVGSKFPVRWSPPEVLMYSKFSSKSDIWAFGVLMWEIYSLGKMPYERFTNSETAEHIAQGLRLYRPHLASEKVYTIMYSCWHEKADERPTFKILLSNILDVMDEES
- protocol.text: BTK degradation in TMD-8 cells, HTRF assay after 6 h treatment
- Format: cell-based
- condition.context: IC50 (DC50) of BTK degradation
readout.type: DC50 (nM)
Number in nM, nothing else.

Assay BTK (Homo sapiens, UniProt Q06187), sample `Cc1cc(-c2n[nH]c3ncc(-c4ccc(N5CCN(CC6CCN(c7ccc(N8CCC(=O)NC8=O)cc7)CC6)CC5)nc4)cc23)ccc1CNC(=O)c1nc(C(C)(C)C)no1` , DC50 read: 1.47

Assay BTK (Homo sapiens, UniProt Q06187), sample `Cc1cc(-c2n[nH]c3ncc(-c4ccc(N5CCN(CC6CCN(c7ccc(N8CCC(=O)NC8=O)cc7)CC6)CC5)cc4)cc23)c(F)cc1[C@@H](C)NC(=O)c1nc(C(C)(C)C)no1` , DC50 read: 5.13

Assay BTK (Homo sapiens, UniProt Q06187), sample `Cc1cc(-c2n[nH]c3ncc(-c4ccc(N5CCN(CC6CCN(c7ccc(N8CCC(=O)NC8=O)cn7)CC6)CC5)cc4)cc23)ccc1[C@@H](C)NC(=O)c1noc(C(C)(C)C)n1` , DC50 read: 1.42

Assay BTK (Homo sapiens, UniProt Q06187), sample `Cc1cc(-c2n[nH]c3ncc(-c4ccc(C5CCN(CC6CCN(c7ccc(N8CCC(=O)NC8=O)cc7)CC6)CC5)cc4)cc23)ccc1CNC(=O)c1nc(C(C)(C)C)no1` , DC50 read: 1.19

Assay BTK (Homo sapiens, UniProt Q06187), sample `Cc1cc(-c2n[nH]c3ncc(-c4ccc(N5CCN(CCc6ccc(N7CCC(=O)NC7=O)cc6)CC5)cn4)cc23)ccc1[C@@H](C)NC(=O)c1noc(C(C)(C)C)n1` , DC50 read: 2.22

Assay BTK (Homo sapiens, UniProt Q06187), sample Cc1cc(-c2n[nH]c3ncc(-c4ccc(N5CC6CN(CCc7ccc(C8CCC(=O)NC8=O)c(C)n7)CC6C5)cn4)cc23)ccc1[C@@H](C)NC(=O)c1noc(C(C)(C)C)n1 (stereo partly shown) , DC50 read: 23.6

Assay BTK (Homo sapiens, UniProt Q06187), sample Cc1cc(-c2n[nH]c3ncc(-c4ccc(N5CCN(CCCOc6ccc(NC7CCC(=O)NC7=O)c(F)c6)CC5)cc4)cc23)ccc1[C@@H](C)NC(=O)c1noc(C(C)(C)C)n1 (stereo partly shown) , DC50 read: 6.15

Assay BTK (Homo sapiens, UniProt Q06187), sample Cc1cc(CCN2CCC(c3ccc(-c4cnc5[nH]nc(-c6ccc([C@@H](C)NC(=O)c7noc(C(C)(C)C)n7)c(C)c6)c5c4)nc3)CC2)ncc1C1CCC(=O)NC1=O (stereo partly shown) , DC50 read: 1.22

Assay BTK (Homo sapiens, UniProt Q06187), sample `Cc1cc(-c2n[nH]c3ncc(-c4ccc(N5CCN(CC6CCN(c7ccc(N8CCC(=O)NC8=O)cc7)CC6)CC5)c(F)c4)cc23)ccc1[C@@H](C)NC(=O)c1noc(C(C)(C)C)n1` , DC50 read: 5.8

Assay BTK (Homo sapiens, UniProt Q06187), sample `Cc1cc(-c2n[nH]c3ncc(-c4ccc(N5CCN(CC6CCN(c7ccc(N8CCC(=O)NC8=O)c(F)c7)CC6)CC5)cc4)cc23)ccc1[C@@H](C)NC(=O)c1noc(C(C)(C)C)n1` , DC50 read: 3.2
